Target: T1, His9G-tagged cynomolgus CD27 recombinant protein (cynomolgus, limits assumed)
T1 construct: In-house, transient transfection of HEK293 cells; also called Cyno CD27/His
T1 chain: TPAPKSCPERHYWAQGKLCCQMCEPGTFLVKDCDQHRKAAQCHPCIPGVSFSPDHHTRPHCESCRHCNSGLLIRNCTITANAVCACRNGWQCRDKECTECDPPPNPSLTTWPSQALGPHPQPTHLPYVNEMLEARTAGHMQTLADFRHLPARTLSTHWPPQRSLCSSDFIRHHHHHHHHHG
Test: SPR Biacore 4000, antibody captured on anti-human Fc, His9G-tagged CD27 injected, 1:1 fit;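 note: Double-referenced SPR (blank anti-Fc surface and buffer injection subtracted), KD derived from association and dissociation rate constants, with human and cynomolgus CD27 as analytes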
# Kd listing for each entry below
Expressed in nM, but write only the number.

Look over these answered cases.
binder	Kd [nM]
hCD27.131A VH6VL8 huIgG4 (antibody, V domains shown) VH: EIQLVQSGAEVKKPGASVKVSCKASGYTFTNYGMNWVKQAPGQGLKWMGWINTNTGEPTYAEEFKGRFTFTLDTSISTAYMELSSLRSEDTAVYYCAREGDAMDYWGQGTTVTVSS VL: EIVLTQSPATLSASPGERVTLSCSASSSVSYMHWYQQKPGQAPKRWIYDTSKLASGVPARFSGSGSGTDYSLTISSMEPEDFAVYYCQQWNSYPFTFGQGTKLEIK	55.2
131A chimera huIgG4 (antibody, V domains shown, also called chimeric mouse-human hCD27.131A huIgG4) VH: QIQLVQSGPELKKPGETVKISCKASGYTFTNYGMNWVKQAPGKGLKWMGWINTNTGEPTYAEEFKGRFAFSLETSATTAYLQINNLKNEDTATYFCAREGDAMDYWGQGTSVTVSS VL: QIVLTQSPAIMSASPGEKVTMTCSASSSVSYMHWYQQKSGTSPKRWIYDTSKLASGVPARFSGSGSGTSYSLTISSMEAEDAATYYCQQWNSYPFTFGSGTKLEIK	31.2

Proceeding to the next binder to report its Kd.
Ask | # return recorded Kd for input hCD27.131A VH8VL6 huIgG1 (antibody, V domains shown) VH: EIQLVQSGAEVKKPGASVKVSCKASGYTFTNYGMNWVKQAPGQGLKWMGWINTNTGEPTYAEEFKGRFTFTLDTSISTAYMELSSLRNEDTAVYYCAREGDAMDYWGQGTTVTVSS VL: EIVLTQSPATLSLSPGERATLSCSASSSVSYMHWYQQKPGQAPKRWIYDTSKLASGVPARFSGSGSGTDYSLTISSLEPEDFAVYYCQQWNSYPFTFGQGTKLEIK
Reply | 46.6
